Tested on: HCT-116 colon
testProtocol: NCI tumour cell line growth inhibition, 48 h
endpoint: TGI

COC(=O)c1c(CC(Cc2ccc3c(c2)CCCC3)C(=O)O)ccc2c1CCCC2 (stereo not given) : 33.1 µM
CCOC(=O)/C=C/c1c(C)[nH]c(=O)[nH]c1=O : > 250 µM
N#CCCN(CCC#N)c1ccc(/C=C2\N=C(c3ccccc3)N(c3ccc(C(=O)O)cc3)C2=O)cc1 : > 100 µM
C=C(CN1CCc2c([nH]c3ccccc23)C1)c1ccc(C(=O)Nc2ccccc2N)cc1 : 32.9 µM
C#CCN(N=O)C(=O)ON1C(=O)CCC1=O : > 100 µM

Below is a list of compounds. For each, state its recorded TGI.
1. CC(C)(C)[Si](C)(C)OC1[C@@H](CNC(N)=O)O[C@@H](n2cnc3c(NC(=O)Nc4ccccc4)ncnc32)[C@H]1O[Si](C)(C)C(C)(C)C (stereo not given in full)
2. O=[N+]([O-])c1ccc(C2ON=C(c3ccccc3)N2C23CC4CC(CC(C4)C2)C3)cc1 (stereo not given)
3. CCn1cc(/C=C2\Oc3cc(OCC#N)ccc3C2=O)c2cc(OC)ccc21

["1.45 µM", "> 10 µM", "> 100 µM"]

Please give TGI for each item listed below.
1. CCC(=O)N/S(=N/S(=O)(=O)c1ccccc1)C(Cl)(Cl)Cl (stereo not given)
2. CC[C@@H](CCCCC1CC[C@H]2CC(=O)C[C@@H]12)OC (stereo not given in full)
3. N#Cc1c(=O)c2ccccc2n2ccccc12

> 100 µM
> 100 µM
> 100 µM

Quick batch: TGI for everything below.
1. CCCCCCC(O)CC[C@H]1CCC[C@@H](C)N1 (stereo not given in full)
2. CCC1=CCN(c2cc(C)ccn2)OC1c1ccccc1 (stereo not given)
3. COc1cc(/C=N/N=C(\N)NO)cc(OC)c1OC
4. O=c1c2c(-c3ccccc3)c3ccccc3nc2cnn1-c1ccccc1
5. Nc1nc(N)c2cc(Sc3ccc4ccccc4c3)ccc2n1
6. FC(F)(F)c1ccc2c(c1)nc1n2C(c2c(Cl)cccc2Cl)SC1 (stereo not given)
7. CN(C)N1C(=O)SCC(c2ccccc2)(c2ccccc2)C1=O
8. CC12CCCCC1=C(F)C(F)(F)S2 (stereo not given)

1: > 100 µM; 2: > 100 µM; 3: > 100 µM; 4: > 100 µM; 5: 1.69 µM; 6: 29.5 µM; 7: > 100 µM; 8: 58.5 µM

Please look at this compound and report its TGI: CC12CC(=O)Nc3ccccc3N1C(c1ccccc1)=NO2 (stereo not given) > 100 µM

====

Tested on: NCI-H23 lung
testProtocol: NCI tumour cell line growth inhibition, 48 h
Assignment: determine reported TGI for the given compounds.

Sample answers from the record:
CO/N=C\c1ccc2c(c1)Sc1ccccc1O2 : > 100 µM
O=C1c2ccccc2C(=O)C12CCc1ccccc12 : > 100 µM
C=C1C[C@@H](O)[C@@H](Br)C(C)(C)[C@@]12C=CC(=O)CC2 : > 100 µM

Field: TGI. Fill in for each record below.
1. CC(O)c1cc2c(s1)C(=O)c1c(C(C)O)csc1C2=O (centres undefined)
2. CCCC1(CN2c3ccccc3Sc3ccc(Cl)cc32)CCN(CC)C1 (centres undefined)
3. C=C1C(=O)C23[C@H](O)C1CC[C@H]2[C@]12COC3(O)[C@@H](O)[C@@H]1C(C)(C)CC[C@@H]2O
4. CC(=O)OC(C(=O)[O][Sn]([CH3])([CH3])[CH3])c1ccccc1 (centres undefined)
5. O=C1C[C@@]23CCC4(CC2CCC[C@H]3O1)OCCO4 (some centres undefined)
6. COc1cc(OC)c2sc(-c3ccc(-n4cncc4-c4ccc(OC)c(OC)c4)cc3)nc2c1
7. O=C(Nc1cccc(F)c1)c1cc2ccc(O)cc2oc1=Nc1cccc(F)c1
8. COC(=O)c1c(CC(Cc2ccc3c(c2)CCCC3)C(=O)O)ccc2c1CCCC2 (centres undefined)

1: 0.24 µM; 2: 3.55 µM; 3: 29.8 µM; 4: > 100 µM; 5: > 100 µM; 6: > 100 µM; 7: 6.12 µM; 8: > 100 µM

Look up TGI for the entries below, preserving their order.
1. CCOP(=O)(OCC)/C(C#N)=C/c1ccccn1
2. COc1ccc2c(c1)C(=O)/C(=C/c1cccc(OCC(=O)Nc3nc(C)c(C)s3)c1)O2
3. CCC(=O)N/S(=N/S(=O)(=O)c1ccccc1)C(Cl)(Cl)Cl (centres undefined)
4. COc1ccc(Nc2nc(Nc3cc(C)[nH]n3)c3cc(OC)c(OC)cc3n2)cc1
5. c1ccc2c(c1)c1ccccc1n2Cn1c2ccccc2c2ccccc21
6. Clc1ccc(/C=C/c2ccc3ccccc3n2)cc1

["> 100 µM", "0.715 µM", "> 100 µM", "2.82 µM", "> 100 µM", "> 100 µM"]

Dear reader, for each entry below, please note its TGI.
1. CC(C)(C)[Si](C)(C)OC1[C@@H](CNC(N)=O)O[C@@H](n2cnc3c(NC(=O)Nc4ccccc4)ncnc32)[C@H]1O[Si](C)(C)C(C)(C)C (some centres undefined)
2. NC(=O)c1cccnc1

7.83 µM
> 100 µM

Attribution: PubChem BioAssay (NCI)
